Target Or System: HLA-B*35:01
Assay Notes: IEDB peptide-MHC binding, purified MHC/direct/fluorescence; filed as Kd, often an IC50 or EC50 that approximates it; bounds were set here for any values at or beyond the usual limits of such assays
Particulars: source organism: Vibrio vulnificus YJ016
Reported Endpoint: Kd (nM)
Entry rule: numbers only, all in nM.

Ask: Which Kd value belongs to "YTMELCGAM" ?
Reply: 28

====

Target Or System: HLA-C*03:03
Assay Notes: IEDB peptide-MHC binding, purified MHC/direct/fluorescence; filed as Kd, often an IC50 or EC50 that approximates it; bounds were set here for any values at or beyond the usual limits of such assays
Particulars: source organism: Salmonella enterica subsp. enterica serovar Typhi str. CT18
Reported Endpoint: Kd (nM)
Expressed in nM, but write only the number.

Ask: Endpoint output: Kd of "FVVDTTPPL" . Value?
Reply: 2

====

Target Or System: HLA-B*51:01
Assay Notes: IEDB peptide-MHC binding, purified MHC/competitive/fluorescence; filed as Kd, often an IC50 or EC50 that approximates it; bounds were set here for any values at or beyond the usual limits of such assays
Particulars: source organism: Reston ebolavirus
pKd: −log10 of the molar value.
Collected pKd values appear next to each entry.

In [3]: df
Out[3]:
   construct_sequence  assay_value
0           ALYEENALK       ≤ 4.70

Ask: Can you look up the measured pKd of "GVPPKVVSY" for me?
Reply: ≤ 4.70

====

Target Or System: HLA-A*11:01
Assay Notes: IEDB peptide-MHC binding, purified MHC/competitive/radioactivity; filed as Kd, often an IC50 or EC50 that approximates it; bounds were set here for any values at or beyond the usual limits of such assays
Particulars: source organism: Lassa virus GA391
Reported Endpoint: Kd (µM)
State the answer as a number, implicitly in µM.

Ask: Which Kd value belongs to "LMSIISTFH" ?
Reply: 11.2

====

Target Or System: HLA-B*15:01
Assay Notes: IEDB peptide-MHC binding, purified MHC/direct/fluorescence; filed as Kd, often an IC50 or EC50 that approximates it; bounds were set here for any values at or beyond the usual limits of such assays
Particulars: source organism: Pasteurella multocida
Reported Endpoint: Kd

Ask: Could you share which Kd value was measured for "NNKSRLVAF" ?
Reply: ≥ 20 µM

====

Target Or System: HLA-A*02:06
Assay Notes: IEDB peptide-MHC binding, purified MHC/competitive/radioactivity; filed as Kd, often an IC50 or EC50 that approximates it; bounds were set here for any values at or beyond the usual limits of such assays
Particulars: source organism: Triticum aestivum
Reported Endpoint: Kd (nM)
Record the value in nM, omitting the unit from your answer.

Ask: Please give the measured Kd for this sequence: "SQCQAIHNV"
Reply: 132

====

Target Or System: HLA-A*03:01
Assay Notes: IEDB peptide-MHC binding, purified MHC/direct/fluorescence; filed as Kd, often an IC50 or EC50 that approximates it; bounds were set here for any values at or beyond the usual limits of such assays
Particulars: source organism: Homo sapiens
The entries below are paired with their reported pKd.
Just so you know, pKd here is -log10 of the concentration in molar units; reply with that number alone.

In [3]: df
Out[3]:
   construct_sequence  target_or_system  assay_value
0           YTAVVPLVY       HLA-A*03:01         5.34

Ask: What value of pKd has been reported for the following sequence? "YLGSWATGK"
Reply: 6.59

====

Target Or System: HLA-A*24:03
Assay Notes: IEDB peptide-MHC binding, purified MHC/direct/fluorescence; filed as Kd, often an IC50 or EC50 that approximates it; bounds were set here for any values at or beyond the usual limits of such assays
Particulars: source organism: Escherichia coli O6
Reported Endpoint: pKd
Notebook: values listed as pKd are -log10 of the concentration (mol/L).

Ask: Would you kindly share the measured pKd for "RYICPVQQI" ?
Reply: 8.60

====

Target Or System: HLA-B*39:01
Assay Notes: IEDB peptide-MHC binding, purified MHC/direct/fluorescence; filed as Kd, often an IC50 or EC50 that approximates it; bounds were set here for any values at or beyond the usual limits of such assays
Particulars: source organism: Bacillus cereus H3081.97
Reported Endpoint: Kd

Ask: Which Kd reading was recorded for the sequence "YSTVRDLFL" ?
Reply: ≥ 20 µM

====

Target Or System: HLA-A*26:01
Assay Notes: IEDB peptide-MHC binding, purified MHC/competitive/fluorescence; filed as Kd, often an IC50 or EC50 that approximates it; bounds were set here for any values at or beyond the usual limits of such assays
Particulars: source organism: Influenza A virus (A/Memphis/1/1978(H1N1))
pKd: −log10 of the molar value.
Reported Endpoint: pKd

Ask: Return reported pKd; argument: "AVDADDSHF"
Reply: ≤ 4.70

====

Target Or System: HLA-B*46:01
Assay Notes: IEDB peptide-MHC binding, purified MHC/competitive/fluorescence; filed as Kd, often an IC50 or EC50 that approximates it; bounds were set here for any values at or beyond the usual limits of such assays
Particulars: source organism: Vibrio cholerae O395
Reported Endpoint: Kd

Ask: Data request, read-out Kd, for "RVHFHRFMY"
Reply: ≥ 20 µM

====

Target Or System: HLA-B*08:01
Assay Notes: IEDB peptide-MHC binding, purified MHC/direct/fluorescence; filed as Kd, often an IC50 or EC50 that approximates it; bounds were set here for any values at or beyond the usual limits of such assays
Particulars: source organism: Vibrio parahaemolyticus
pKd: −log10 of the molar value.
Reported Endpoint: pKd

Ask: // pKd lookup, key: "MSSAMSMMH"
Reply: ≤ 4.70

====

Target Or System: HLA-A*69:01
Assay Notes: IEDB peptide-MHC binding, purified MHC/direct/fluorescence; filed as Kd, often an IC50 or EC50 that approximates it; bounds were set here for any values at or beyond the usual limits of such assays
Particulars: source organism: Escherichia coli 536
pKd: −log10 of the molar value.
Reported Endpoint: pKd

Ask: Find the recorded pKd belonging to "RYICPVQQI" and report it.
Reply: ≤ 4.70

====

Target Or System: HLA-B*51:01
Assay Notes: IEDB peptide-MHC binding, purified MHC/direct/fluorescence; filed as Kd, often an IC50 or EC50 that approximates it; bounds were set here for any values at or beyond the usual limits of such assays
Particulars: source organism: Tetraodon nigroviridis
Reported Endpoint: pKd
Convention used: pKd is expressed as -log10 of the molar concentration.

Ask: Param item = "LPAQGLIEF" ; retrieve measured pKd.
Reply: 4.95

====

Target Or System: HLA-A*24:03
Assay Notes: IEDB peptide-MHC binding, purified MHC/direct/fluorescence; filed as Kd, often an IC50 or EC50 that approximates it; bounds were set here for any values at or beyond the usual limits of such assays
Particulars: source organism: Giardia lamblia ATCC 50803
Reported Endpoint: Kd

Ask: Give the measured Kd of "RPRGHREFC" .
Reply: ≥ 20 µM

====

Target Or System: HLA-A*02:11
Assay Notes: IEDB peptide-MHC binding, purified MHC/direct/fluorescence; filed as Kd, often an IC50 or EC50 that approximates it; bounds were set here for any values at or beyond the usual limits of such assays
Particulars: source organism: Maciel virus
pKd: −log10 of the molar value.
Reported Endpoint: pKd

Ask: Quick one: pKd for "HTQAIEGAW" ?
Reply: ≤ 4.70

====

Target Or System: HLA-C*15:02
Assay Notes: IEDB peptide-MHC binding, purified MHC/direct/fluorescence; filed as Kd, often an IC50 or EC50 that approximates it; bounds were set here for any values at or beyond the usual limits of such assays
Particulars: source organism: Bacillus anthracis str. A0488
Reported Endpoint: Kd (nM)
Quick reminder: number only, in nM, skip the unit.

Ask: Please report the recorded Kd for "FVFGIPLLV" .
Reply: 41

====

Target Or System: HLA-A*02:01
Assay Notes: IEDB peptide-MHC binding, purified MHC/direct/fluorescence; filed as Kd, often an IC50 or EC50 that approximates it; bounds were set here for any values at or beyond the usual limits of such assays
Particulars: source organism: Pasteurella multocida
pKd: −log10 of the molar value.
Reported Endpoint: pKd

Ask: # query: pKd of entry "NNKSRLVAF"
Reply: ≤ 4.70

====

Target Or System: HLA-B*15:01
Assay Notes: IEDB peptide-MHC binding, purified MHC/direct/fluorescence; filed as Kd, often an IC50 or EC50 that approximates it; bounds were set here for any values at or beyond the usual limits of such assays
Particulars: source organism: Vibrio vulnificus YJ016
pKd: −log10 of the molar value.
Reported Endpoint: pKd

Ask: If you can, please state the reported pKd value of "DAYGFHNYK" .
Reply: ≤ 4.70

====

Target Or System: HLA-A*02:12
Assay Notes: IEDB peptide-MHC binding, purified MHC/direct/fluorescence; filed as Kd, often an IC50 or EC50 that approximates it; bounds were set here for any values at or beyond the usual limits of such assays
Particulars: source organism: Orthohantavirus tulaense
pKd: −log10 of the molar value.
Reported Endpoint: pKd

Ask: Query (sequence): "SSLRYGNVL" ; field requested: pKd
Reply: ≤ 4.70
